Cited source for all entries: PubChem BioAssay

Reported values of z-score for individual entries
Assay: FRG1 promoter luciferase signal modulators, primary screen, FRG1 inhibition for FSHD, cell-based, C2C12 myotubes, firefly/Renilla luciferase, luminescence (AID 1084)
Details: higher = more signal, called active from +8 up or from −8 down
MEASURED ENDPOINT: z-score

INSERT INTO measurements (molecule, measured_endpoint, number) VALUES
  ('CCc1cc2c(nc1CC)CCN(CCC(C)=NOC(C)CN1CCCCc3nc(C)c(C)cc31)C2 (configuration not stated)', 'z-score', 0.795),
  ('COc1ccc(COC(=O)NN=C2C[C@@H](O)[C@@H](O)[C@@H]3[C@@H]4C(=O)N(C5CCCCC5)C(=O)[C@@H]4CC[C@@H]23)cc1', 'z-score', 0.468),
  ('CON=C(C)CCN1CCCc2nc(C)c(C)cc21', 'z-score', 0.885),
  ('O=C(NN=C1C[C@@H](O)[C@@H](O)[C@@H]2[C@@H]3C(=O)N(c4ccc(F)cc4F)C(=O)[C@@H]3CC[C@H]12)OCc1ccccc1', 'z-score', -0.823),
  ('CC(=O)OC[C@H]1O[C@H](CC=NOCC[C@@H]2C=C[C@H](OC(C)=O)[C@@H](COC(C)=O)O2)C=C[C@@H]1OC(C)=O', 'z-score', 1.06),
  ('CO[C@@H]1COC(=O)[C@H](COCc2ccccc2)NC(=O)CC=C[C@@H](C)[C@H](OC)COC(=O)[C@@H](C)NC(=O)CC=C[C@H]1C', 'z-score', 0.696),
  ('COC(=O)CC=C[C@@H](C)[C@@H](C=NOC[C@@H](C)[C@H](OCc1ccccc1)C(C)C)OC', 'z-score', 0.947);

---

Reported values of z-score for individual entries
Biological target: NADPH oxidase 4 (Homo sapiens)
Assay: NOX4-dependent H2O2 signal modulators, primary screen, NOX inhibitor project, cell-based, HEK293-NOX4, tetracycline-induced, Amplex Red fluorescence (AID 1160)
Details: 45 min, higher = more signal, called active from +8 up or from −8 down
MEASURED ENDPOINT: z-score

INSERT INTO measurements (smiles_record, number) VALUES
  ('CON=C(C)CCN1CCc2nc(-c3ccccc3)c(-c3ccccc3)cc2C1', -2.6),
  ('CCOC(=O)NN=C1C[C@@H](O)[C@@H](O)[C@@H]2[C@@H]3C(=O)N(CC)C(=O)[C@@H]3CC[C@H]12', 0.199),
  ('C#CCCCON=C1C[C@@H](O)[C@@H](O)[C@@H]2[C@@H]3C(=O)N([C@@H](C)c4ccccc4)C(=O)[C@@H]3CC[C@@H]12', 0.574),
  ('CC(=O)OC[C@H]1O[C@@H](ON=C2[C@H]3CCn4c(=O)n(-c5ccccc5)c(=O)n4[C@H]3[C@H](O)[C@@H]3O[C@H]23)[C@H](OC(C)=O)[C@@H](OC(C)=O)[C@@H]1OC(C)=O', -0.47);

---

Test: A549 lung cancer cell viability effects, profiling panel, resazurin fluorescence, 24 h, PK04 Diversity Set (AID 1171); note: test concentration not given here
Conditions: higher = more signal, called active from +8 up or from −8 down
MEASURED ENDPOINT: z-score

INSERT INTO results (molecule, number) VALUES
  ('CC(C)[C@@H](OCc1ccccc1)[C@H](C)C=NO[C@@H](C)c1cn([C@H](CO)Cc2ccccc2)nn1', -0.877),
  ('CC(CCN1CCCc2nc(C)c(C)cc21)=NO[C@@H](C)c1cn([C@H](CO)Cc2ccccc2)nn1', -0.131),
  ('COC(=O)[C@@H]1CC[C@H](C)[C@@H](c2ccc(Br)cc2)N1C[C@H](O)CN=[N+]=[N-]', -0.624),
  ('CCN(CC)CC(O)CN1CCCCc2nc(C)c(C)cc21 (stereo unspecified)', 0.985),
  ('CC(CCN1CCc2nc(-c3ccccc3)c(-c3ccccc3)cc2C1)=NO[C@@H](C)c1cc(-c2c(C)cc(C)cc2C)no1', 0.235),
  ('CC(=O)OC[C@H]1O[C@H](CC=NO[C@H](C)c2cn([C@@H]3COC[C@H]3O)nn2)C=C[C@@H]1OC(C)=O', -0.145),
  ('O=C1C2=CC[C@H]3C(=O)N(C4CCCCC4)C(=O)[C@H]3[C@H]2[C@H](O)[C@@H]2O[C@H]12', -2.67),
  ('CC1(C)O[C@H]2O[C@H]([C@H](O)CON=C3[C@H]4CCn5c(=O)n(-c6ccccc6)c(=O)n5[C@H]4[C@H](O)[C@@H]4O[C@H]34)[C@H](O)[C@H]2O1', 0.065),
  ('CCOC(=O)[C@H](Cc1ccccc1)NC(=O)CCC1CC(OC(=O)NCc2ccc3c(c2)OCO3)CC2(CCCC(COC(=O)NCCCN3CCCC3=O)O2)O1 (stereo partly specified)', 0.529),
  ('C[C@@H]1CC[C@H]2C(=O)N3[C@@H](CC[C@@H](C)[C@@H]3c3ccc(Br)cc3)C(=O)N2[C@H]1c1ccc(Br)cc1', 0.632),
  ('CON=C(C)CCN1CCCCc2nc(C)c(C)cc21', -0.0601),
  ('CC(=O)OC[C@H]1O[C@@H](ON=C(C)CCN2CCCCc3nc(C)c(C)cc32)[C@H](OC(C)=O)[C@@H](OC(C)=O)[C@@H]1OC(C)=O', -0.101),
  ('CCOC(=O)[C@H](Cc1ccccc1)NC(=O)CCC1CC(OC(=O)NCc2ccc3c(c2)OCO3)CC2(CCCC(COC(=O)NCCc3ccc(Cl)cc3)O2)O1 (stereo partly specified)', -0.455),
  ('COC(=O)[C@@H]1CC[C@H](C)[C@@H](c2ccc(Br)cc2)N1C[C@@H](O)CN=[N+]=[N-]', 0.0136),
  ('C[C@@H]1C=CCC(=O)OC[C@H](C)C(=O)N[C@@H](Cc2ccccc2)C(=O)OC1', 0.168),
  ('COC(=O)CC=C[C@@H](C)[C@@H](C=NOC[C@@H](O)COCc1ccco1)OC', -0.329),
  ('CCc1cc2c(nc1CC)CCN(CCC(C)=NOC[C@@H](C)[C@H](OCc1ccccc1)C(C)C)C2', -0.445),
  ('O=C1[C@H]2[C@H]3[C@H](O)[C@H](O)CC(=NO[C@@H]4O[C@H](CO)[C@@H](O)[C@H](O)[C@H]4O)[C@@H]3CC[C@H]2C(=O)N1C1CCCCC1', -0.934),
  ('CC(C)CON=C1C[C@@H](O)[C@@H](O)[C@@H]2[C@@H]3C(=O)N(Cc4ccccc4)C(=O)[C@@H]3CC[C@H]12', 0.312),
  ('C[C@@H]1CC[C@H]2C(=O)O[C@@H](COc3ccc(C(C)(C)C)cc3)CN2[C@H]1c1ccc(Br)cc1', 1.71),
  ('COc1cccc([C@H](O)Cn2cc(-c3ccc(CON=C(C)C)cc3)nn2)c1', -0.409),
  ('CCOC(=O)CCN1C(=O)[C@H]2[C@H]3[C@H](O)[C@H](O)CC(=O)[C@@H]3CC[C@H]2C1=O', 0.699),
  ('CC(=O)OC[C@H]1O[C@@H](ON=C(C)C)[C@H](OC(C)=O)[C@@H](OC(C)=O)[C@@H]1OC(C)=O', -0.0264),
  ('O=C1[C@H]2[C@H]3[C@H](O)[C@H](O)CC(=NOC[C@@H](O)COCc4ccco4)[C@@H]3CC[C@H]2C(=O)N1Cc1ccc2c(c1)OCO2', 0.178),
  ('CCCNC(=O)OC[C@H]1O[C@H](CCON=C[C@@H](C)[C@H](OCc2ccccc2)C(C)C)C=C[C@@H]1Oc1ccc(OC)cc1', 0.743),
  ('C[C@H]1CC[C@H]2C(=O)O[C@H](CO)CN2[C@@H]1c1ccc(Br)cc1', 0.581),
  ('O=C1CCCC=C1C(O)C1CCCCC1 (stereo unspecified)', 0.436),
  ('CCOC(=O)CCN1C(=O)[C@H]2[C@H]3[C@H](O)[C@H](O)CC(=NO[C@@H]4O[C@H](CO)[C@@H](O)[C@H](O)[C@H]4O)[C@H]3CC[C@H]2C1=O', -0.292),
  ('C[C@H]1CC[C@H]2C(=O)OC(COc3ccc(C(C)(C)C)cc3)CN2[C@@H]1c1ccc(Br)cc1 (stereo partly specified)', 0.479),
  ('COC(=O)CC=C[C@@H](C)[C@@H](C=NOC(C)CN1CCCCc2nc(C)c(C)cc21)NS(=O)(=O)c1ccc(C)cc1 (stereo partly specified)', -0.204),
  ('CC(C)CON=C1C[C@@H](O)[C@@H](O)[C@@H]2[C@@H]3C(=O)N(c4ccc(F)cc4F)C(=O)[C@@H]3CC[C@@H]12', 0.491);
